Target: UniProt:P07339
Sequence (P07339 65-162 limits assumed): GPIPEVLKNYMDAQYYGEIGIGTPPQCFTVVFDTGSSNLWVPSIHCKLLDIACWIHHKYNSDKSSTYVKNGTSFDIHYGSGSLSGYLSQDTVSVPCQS
Sequence (P07339 169-412 limits assumed): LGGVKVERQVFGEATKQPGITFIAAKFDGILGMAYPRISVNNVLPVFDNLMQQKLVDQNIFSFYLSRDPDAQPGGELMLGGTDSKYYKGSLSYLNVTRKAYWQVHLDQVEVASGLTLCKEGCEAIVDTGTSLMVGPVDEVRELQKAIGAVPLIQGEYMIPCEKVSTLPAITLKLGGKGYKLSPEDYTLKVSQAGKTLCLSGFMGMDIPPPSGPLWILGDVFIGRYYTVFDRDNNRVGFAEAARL
Experiment: Inhibitory concentration against cathepsin D..
attribute-measured: IC50 (µM)
Kindly provide the numeric value in µM only, without the unit symbol.

Prompt: Data request, read-out IC50, for CC(C)C[C@H](O)[C@H](O)[C@H](CC1CCCCC1)NC(=O)[C@@H](CC(=O)N(CC(=O)N(C)CCc1ccccn1)CC1CCCCC1)Cc1csc(N)n1
Completion: 0.55

====

Molecular target: Coagulation factor X (Homo sapiens, UniProt P00742)
Sequence (P00742 41-179 limits assumed): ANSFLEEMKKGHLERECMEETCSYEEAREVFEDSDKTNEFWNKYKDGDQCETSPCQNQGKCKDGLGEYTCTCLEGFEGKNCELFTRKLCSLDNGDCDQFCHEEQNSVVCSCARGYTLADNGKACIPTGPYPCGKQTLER
Sequence (P00742 235-488 limits assumed): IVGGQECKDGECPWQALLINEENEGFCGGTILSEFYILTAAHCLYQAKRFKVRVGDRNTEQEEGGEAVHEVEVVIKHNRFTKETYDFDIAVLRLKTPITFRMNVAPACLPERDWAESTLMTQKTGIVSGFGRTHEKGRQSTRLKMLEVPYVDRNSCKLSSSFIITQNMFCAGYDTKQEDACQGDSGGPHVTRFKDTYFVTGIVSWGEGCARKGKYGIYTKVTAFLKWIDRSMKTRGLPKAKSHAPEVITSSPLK
attribute-measured: pIC50
As a rule, pIC50 stands for the negative log10 of the concentration, concentration in M.

Prompt: Please tell me: pIC50 of N=C(N)c1ccc2cc(OC(=O)c3ccc(N=C(N)N)cc3)ccc2c1 , system Coagulation factor X (Homo sapiens, UniProt P00742)?
Completion: 4.68

====

Experiment: Half life.
Assay type: ADME
attribute-measured: half-life (h)
Kindly provide the numeric value in h only, without the unit symbol.

Prompt: Data request, read-out half-life, for CC[C@@H](NC(=O)N1C(=O)[C@](C)(CC)[C@@H]1Oc1ccc(CC(=O)O)cc1)c1ccccc1
Completion: 5

Prompt: Data request, read-out half-life, for N[C@H]1CC[C@H](CNC(=O)[C@@H]2CCCN2C(=O)C2(O)c3ccccc3-c3ccccc32)CC1
Completion: 4

====

Target: Renin (Homo sapiens, UniProt P00797)
Sequence (P00797 whole entry): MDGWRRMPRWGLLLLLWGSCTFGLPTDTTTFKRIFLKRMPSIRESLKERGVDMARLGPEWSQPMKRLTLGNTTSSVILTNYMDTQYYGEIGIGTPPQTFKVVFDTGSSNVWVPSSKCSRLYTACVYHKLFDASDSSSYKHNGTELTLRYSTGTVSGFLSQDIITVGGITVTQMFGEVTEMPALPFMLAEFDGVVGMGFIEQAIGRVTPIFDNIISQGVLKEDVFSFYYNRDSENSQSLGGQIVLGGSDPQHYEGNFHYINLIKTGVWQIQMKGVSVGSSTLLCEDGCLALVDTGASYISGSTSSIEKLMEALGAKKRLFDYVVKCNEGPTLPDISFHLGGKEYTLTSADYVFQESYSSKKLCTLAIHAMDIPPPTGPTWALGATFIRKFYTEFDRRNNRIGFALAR
Assay: Inhibitory concentration against human plasma renin at pH 6.
Assay type: cell-free
attribute-measured: IC50
Answer with the number, then the unit.

Prompt: Data request, read-out IC50, for CC(C)C[C@H](O)[C@H](O)[C@H](CC1CCCCC1)NC(=O)[C@@H](CC(=O)N(CC(=O)N(C)CCc1ccccn1)CC1CCCCC1)Cc1csc(N)n1
Completion: 1.4 nM

====

Test system: Human immunodeficiency virus
Assay: Antiviral activity against HIV-1 protease
Type: functional, organism-based
Conditions: Human immunodeficiency virus 1
attribute-measured: EC50 (nM)
Kindly provide the numeric value in nM only, without the unit symbol.

Prompt: Data request, read-out EC50, for CC(C)[C@H](NC(=O)c1ccc2ccccc2n1)C(=O)N[C@@H](Cc1ccccc1)[C@H](O)CN1CC[C@@H](OCc2ccncc2)C[C@H]1C(=O)NC(C)(C)C
Completion: 30

====

Quick record: pKi, Interstitial collagenase (Homo sapiens).
As a rule, pKi stands for the negative log10 of the concentration, concentration in M.

O=C(NO)C1(CS(=O)(=O)c2ccc(Oc3ccc(Cl)cc3)cc2)CCOCC1 [CTS-1027] :: 6.23

Turning to the following molecule.
Prompt: Please tell me: pKi of O=C(C[C@H](CSc1ccccc1)C(=O)O)c1ccc(-c2ccc(Cl)cc2)cc1 [TANOMASTAT] , system Interstitial collagenase (Homo sapiens)?
Completion: 5.30

Origin of values: ChEMBL document CHEMBL1133572
